Test: Ratio of drug concentration in brain to blood of Sprague-Dawley rat at 25 mg/kg, po administered via gavage incubated for 8 hrs by LC/MS-MS analysis
Format: ADME, organism-based
Conditions: brain and blood, read-out: BBR

Compound	Kp at 8 h
Cc1c(C#Cc2cnc3cnc(-c4ccc(N)cc4)cn23)cccc1C(=O)Nc1cc(CN2CCN(C)CC2)cc(C(C)C)c1	8.3

---

Test: Plasma concentration in Sprague-Dawley rat at 25 mg/kg, po administered via gavage incubated for 0.5 hrs by LC/MS-MS analysis
Format: ADME, organism-based

Compound	Unit Spec	concentration at 0.5 h
Cc1c(C#Cc2cnc3cnc(-c4ccc(N)cc4)cn23)cccc1C(=O)Nc1cc(CN2CCN(C)CC2)cc(C(C)C)c1	ng/mL	7.33

---

Tested on: SH-SY5Y
Experiment: Antiproliferative activity against human SH-SY5Y cells transfected with TrkB (unknown origin) assessed as reduction in cell viability incubated for 72 hrs by CCK8 assay
Assay type: functional, cell-based
Measure Name: IC50 (nM)

Compound	Measure Name	Unit Spec	Numeric Result
Cc1c(C#Cc2cnc3cnc(-c4ccc(N)cc4)cn23)cccc1C(=O)Nc1cc(CN2CCN(C)CC2)cc(C(C)C)c1	IC50	nM	58

---

Assay: Drug concentration in Sprague-Dawley rat brain at 25 mg/kg, po administered via gavage incubated for 8 hrs by LC/MS-MS analysis
Format: ADME, organism-based
Conditions: read-out: Ct
Measure Name: concentration at 8 h (ng/mL)

Compound	Numeric Result
Cc1c(C#Cc2cnc3cnc(-c4ccc(N)cc4)cn23)cccc1C(=O)Nc1cc(CN2CCN(C)CC2)cc(C(C)C)c1	0.09

---

Assay: Ratio of drug concentration in brain to blood of Sprague-Dawley rat at 25 mg/kg, po administered via gavage incubated for 2 hrs by LC/MS-MS analysis
Assay type: ADME, organism-based
Settings: brain and blood, read-out: BBR
Measure Name: Kp at 2 h

Compound	Measure Name	Numeric Result
Cc1c(C#Cc2cnc3cnc(-c4ccc(N)cc4)cn23)cccc1C(=O)Nc1cc(CN2CCN(C)CC2)cc(C(C)C)c1	Kp at 2 h	6

---

Test: Plasma concentration in Sprague-Dawley rat at 25 mg/kg, po administered via gavage incubated for 2 hrs by LC/MS-MS analysis
Type: ADME, organism-based

Compound	concentration at 2 h / ng/mL
Cc1c(C#Cc2cnc3cnc(-c4ccc(N)cc4)cn23)cccc1C(=O)Nc1cc(CN2CCN(C)CC2)cc(C(C)C)c1	33.2

---

Biological target: UniProtKB P04629
Test: Inhibition of recombinant human His-tagged TrkA catalytic domain (441 to 796 residues) expressed in baculovirus expression system using tyr 01 as substrate incubated for 1 hr by Z'-Lyte assay
pIC50: −log10 of the molar value.
Short version: pIC50 at least 8 is Met, less is Not met.

Compound	Cat
Cc1cc(CN2CCN(C)CC2)cc(NC(=O)c2cccc(C#Cc3cnc4cnc(-c5ccc(N)cc5)cn34)c2C)c1	Not met
COc1c(C#Cc2cnc3cnccn23)cccc1C(=O)Nc1cc(CN2CCN(C)CC2)cc(C(F)(F)F)c1	Not met
Cc1c(C#Cc2cnc3cnc(-c4ccc(N)cc4)cn23)cccc1C(=O)Nc1cc(CN2CCN(C)CC2)cc(C(C)C)c1	Met
CCc1cc(CN2CCN(C)CC2)cc(NC(=O)c2cccc(C#Cc3cnc4cnc(-c5ccc(N)cc5)cn34)c2C)c1	Met

---

Target: High affinity nerve growth factor receptor (Homo sapiens)
Sequence (P04629 whole entry, the tested form may be a part): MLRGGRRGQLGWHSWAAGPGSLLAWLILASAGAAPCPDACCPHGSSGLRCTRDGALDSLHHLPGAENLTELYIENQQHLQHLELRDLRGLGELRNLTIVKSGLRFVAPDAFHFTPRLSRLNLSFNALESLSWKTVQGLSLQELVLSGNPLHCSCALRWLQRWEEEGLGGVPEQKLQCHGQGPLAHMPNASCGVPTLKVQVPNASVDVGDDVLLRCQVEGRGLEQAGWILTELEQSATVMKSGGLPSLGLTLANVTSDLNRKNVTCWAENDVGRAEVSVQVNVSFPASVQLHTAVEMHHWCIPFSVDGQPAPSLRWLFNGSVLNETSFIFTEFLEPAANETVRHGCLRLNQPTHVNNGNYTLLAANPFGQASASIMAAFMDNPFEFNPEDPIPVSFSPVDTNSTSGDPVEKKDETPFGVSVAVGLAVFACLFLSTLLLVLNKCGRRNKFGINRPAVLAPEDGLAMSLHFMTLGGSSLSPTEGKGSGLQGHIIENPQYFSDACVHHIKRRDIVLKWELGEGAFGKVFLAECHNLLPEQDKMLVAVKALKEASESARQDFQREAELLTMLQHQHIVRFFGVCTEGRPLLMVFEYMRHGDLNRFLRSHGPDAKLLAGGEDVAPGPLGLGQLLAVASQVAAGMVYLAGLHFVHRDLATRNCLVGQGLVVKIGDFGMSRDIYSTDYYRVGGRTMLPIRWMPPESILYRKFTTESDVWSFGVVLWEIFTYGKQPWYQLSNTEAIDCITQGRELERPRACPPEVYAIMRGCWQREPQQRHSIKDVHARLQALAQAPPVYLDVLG
Experiment: Inhibition of recombinant human His-tagged TrkA catalytic domain (441 to 796 residues) expressed in baculovirus expression system using tyr 01 as substrate incubated for 1 hr by Z'-Lyte assay
pIC50: −log10 of the molar value.
We begin with a simple list: items and their reported pIC50.

Compound	Study Target	Qualifier	pIC50
CCc1c(C#Cc2cnc3cnccn23)cccc1C(=O)Nc1cc(CN2CCN(C)CC2)cc(C(F)(F)F)c1	High affinity nerve growth factor receptor (Homo sapiens)	=	6.73
CN1CCN(Cc2cc(NC(=O)c3cccc(C#Cc4cnc5cnccn45)c3Cl)cc(C(F)(F)F)c2)CC1	High affinity nerve growth factor receptor (Homo sapiens)	=	6.64
CC(C)c1c(C#Cc2cnc3cnccn23)cccc1C(=O)Nc1cc(CN2CCN(C)CC2)cc(C(F)(F)F)c1	High affinity nerve growth factor receptor (Homo sapiens)	<	6.00
CN1CCN(Cc2cc(NC(=O)c3cccc(C#Cc4cnc5cnccn45)c3)cc(C(F)(F)F)c2)CC1	High affinity nerve growth factor receptor (Homo sapiens)	=	7.38
CCCc1c(C#Cc2cnc3cnccn23)cccc1C(=O)Nc1cc(CN2CCN(C)CC2)cc(C(F)(F)F)c1	High affinity nerve growth factor receptor (Homo sapiens)	<	6.00
Cc1cc(C#Cc2cnc3cnccn23)cc(C(=O)Nc2cc(CN3CCN(C)CC3)cc(C(F)(F)F)c2)c1	High affinity nerve growth factor receptor (Homo sapiens)	=	6.88
Cc1ccc(C#Cc2cnc3cnccn23)cc1C(=O)Nc1cc(CN2CCN(C)CC2)cc(C(F)(F)F)c1	High affinity nerve growth factor receptor (Homo sapiens)	<	6.00
Cc1c(C#Cc2cnc3cnccn23)cccc1C(=O)Nc1cc(CN2CCN(C)CC2)cc(C(F)(F)F)c1	High affinity nerve growth factor receptor (Homo sapiens)	=	7.40
Cc1c(C#Cc2cnc3cnc(-c4ccncc4)cn23)cccc1C(=O)Nc1cc(CN2CCN(C)CC2)cc(C(F)(F)F)c1	High affinity nerve growth factor receptor (Homo sapiens)	=	7.54
Cc1c(C#Cc2cnc3cnc(-c4ccccc4)cn23)cccc1C(=O)Nc1cc(CN2CCN(C)CC2)cc(C(F)(F)F)c1	High affinity nerve growth factor receptor (Homo sapiens)	=	7.53

These measurements were taken from ChEMBL document CHEMBL4351015.
